These entries and their values trace back to paper PMC6001238.

Please respond with reported MIC-fold improvement vs. vancomycin for every item in the list.
- System: E. faecalis VRE 53
- assay.comment: MIC, broth microdilution, vancomycin-resistant E. faecalis VRE 53 (VanA)
- Type: cell-based, Enterococcus faecalis
- measurement.setup: VRE 53; ratio of MIC of vancomycin and MIC of analogue

Which MIC-fold improvement vs. vancomycin reading was recorded for the compound C#Cc1ccc(-c2ccc(C(=O)NCCCNC(=O)[C@H]3NC(=O)[C@H]4NC(=O)[C@H](NC(=O)[C@@H]5NC(=O)[C@H](CC(N)=O)NC(=O)[C@H](NC(=O)[C@@H](CC(C)C)NC)[C@H](O)c6ccc(c(Cl)c6)Oc6cc5cc(c6O[C@@H]5O[C@H](CO)[C@@H](O)[C@H](O)[C@H]5O[C@H]5C[C@](C)(N)[C@H](O)[C@H](C)O5)Oc5ccc(cc5Cl)[C@H]4O)c4ccc(O)c(c4)-c4c(O)cc(O)cc43)cc2)cc1 ?
128

What does the record list as MIC-fold improvement vs. vancomycin for CNC(CC(C)C)C(=O)NC1C(=O)NC(CC(N)=O)C(=O)NC2C(=O)NC3C(=O)NC(C(=O)NC(C(=O)NCC(=O)Nc4ccc(-c5ccccc5)cc4)c4cc(O)cc(O)c4-c4cc3ccc4O)C(O)c3ccc(c(Cl)c3)Oc3cc2cc(c3OC2OC(CO)C(O)C(O)C2OC2CC(C)(N)C(O)C(C)O2)Oc2ccc(cc2Cl)C1O (centres unmarked) ?
256

What value of measured MIC-fold improvement vs. vancomycin is listed for CN[C@H](CC(C)C)C(=O)N[C@H]1C(=O)N[C@@H](CC(N)=O)C(=O)N[C@H]2C(=O)N[C@H]3C(=O)N[C@H](C(=O)N[C@H](C(=O)NCCNC(=O)/C=C/c4ccc(C)cc4)c4cc(O)cc(O)c4-c4cc3ccc4O)[C@H](O)c3ccc(c(Cl)c3)Oc3cc2cc(c3O[C@@H]2O[C@H](CO)[C@@H](O)[C@H](O)[C@H]2O[C@H]2C[C@](C)(N)[C@H](O)[C@H](C)O2)Oc2ccc(cc2Cl)[C@H]1O ?
32

Need MIC-fold improvement vs. vancomycin of CNC(CC(C)C)C(=O)NC1C(=O)NC(CC(N)=O)C(=O)NC2C(=O)NC3C(=O)NC(C(=O)NC(C(=O)NCCCNC(=O)c4nc5ccccc5[nH]4)c4cc(O)cc(O)c4-c4cc3ccc4O)C(O)c3ccc(c(Cl)c3)Oc3cc2cc(c3OC2OC(CO)C(O)C(O)C2OC2CC(C)(N)C(O)C(C)O2)Oc2ccc(cc2Cl)C1O (centres unmarked) , thanks.
16

Can you share its MIC-fold improvement vs. vancomycin? I mean this compound: CN[C@H](CC(C)C)C(=O)N[C@H]1C(=O)N[C@@H](CC(N)=O)C(=O)N[C@H]2C(=O)N[C@H]3C(=O)N[C@H](C(=O)N[C@H](C(=O)NCCNC(=O)/C=C/c4ccc(NS(=O)(=O)c5ccc(C)cc5)cc4)c4cc(O)cc(O)c4-c4cc3ccc4O)[C@H](O)c3ccc(c(Cl)c3)Oc3cc2cc(c3O[C@@H]2O[C@H](CO)[C@@H](O)[C@H](O)[C@H]2O[C@H]2C[C@](C)(N)[C@H](O)[C@H](C)O2)Oc2ccc(cc2Cl)[C@H]1O
32

Item under review: CNC(CC(C)C)C(=O)NC1C(=O)NC(CC(N)=O)C(=O)NC2C(=O)NC3C(=O)NC(C(=O)NC(C(=O)NCC(=O)Nc4ccc(-c5ccc(C(C)=O)cc5)cc4)c4cc(O)cc(O)c4-c4cc3ccc4O)C(O)c3ccc(c(Cl)c3)Oc3cc2cc(c3OC2OC(CO)C(O)C(O)C2OC2CC(C)(N)C(O)C(C)O2)Oc2ccc(cc2Cl)C1O (centres unmarked) . Reported MIC-fold improvement vs. vancomycin?
32

Data request, read-out MIC-fold improvement vs. vancomycin, for CN[C@H](CC(C)C)C(=O)N[C@H]1C(=O)N[C@@H](CC(N)=O)C(=O)N[C@H]2C(=O)N[C@H]3C(=O)N[C@H](C(=O)N[C@H](C(=O)NCCNC(=O)/C=C/c4cccc(OC)c4)c4cc(O)cc(O)c4-c4cc3ccc4O)[C@H](O)c3ccc(c(Cl)c3)Oc3cc2cc(c3O[C@@H]2O[C@H](CO)[C@@H](O)[C@H](O)[C@H]2O[C@H]2C[C@](C)(N)[C@H](O)[C@H](C)O2)Oc2ccc(cc2Cl)[C@H]1O
16

Consider the compound CNC(CC(C)C)C(=O)NC1C(=O)NC(CC(N)=O)C(=O)NC2C(=O)NC3C(=O)NC(C(=O)NC(C(=O)NCC(=O)Nc4ccc(O)cc4)c4cc(O)cc(O)c4-c4cc3ccc4O)C(O)c3ccc(c(Cl)c3)Oc3cc2cc(c3OC2OC(CO)C(O)C(O)C2OC2CC(C)(N)C(O)C(C)O2)Oc2ccc(cc2Cl)C1O (centres unmarked) and give its measured MIC-fold improvement vs. vancomycin.
16
